# Test system: PPARg DBDmut:RXRa IVT, anti-PPARg (DBD mutation: PPARg1 K132A/R137A, NR concentration 270 nM, RXRa partner concentration 90 nM)
# assay_text: PBM binding z-score (relative to random genomic background probes); higher = stronger binding; sequences stand for … in GC…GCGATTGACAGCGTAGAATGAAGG
PBM binding z-score below 0.2 gives 0 (no); PBM binding z-score at or above it gives 1 (yes).

{"sequence_chain": "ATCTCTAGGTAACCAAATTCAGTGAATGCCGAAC", "group_label": "1 (yes)"}
{"sequence_chain": "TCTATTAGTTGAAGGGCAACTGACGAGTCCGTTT", "group_label": "1 (yes)"}
{"sequence_chain": "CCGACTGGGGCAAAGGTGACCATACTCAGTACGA", "group_label": "1 (yes)"}
{"sequence_chain": "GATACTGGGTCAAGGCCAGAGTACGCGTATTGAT", "group_label": "1 (yes)"}
{"sequence_chain": "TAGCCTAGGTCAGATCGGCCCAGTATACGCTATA", "group_label": "0 (no)"}
{"sequence_chain": "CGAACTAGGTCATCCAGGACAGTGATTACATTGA", "group_label": "1 (yes)"}
{"sequence_chain": "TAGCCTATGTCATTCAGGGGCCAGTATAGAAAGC", "group_label": "0 (no)"}

----------
Each entry below carries its reported PBM binding z-score.
# Tested on: RXRa DBDmut IVT, anti-RXR (DBD mutation: RXRa K156A/R161A, NR concentration 90 nM)
# assay_text: PBM binding z-score (relative to random genomic background probes); higher = stronger binding; sequences stand for … in GC…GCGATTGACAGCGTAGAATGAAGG

{"sequence_chain": "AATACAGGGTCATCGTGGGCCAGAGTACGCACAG", "assayed_target": "RXRa DBDmut IVT, anti-RXR (DBD mutation: RXRa K156A/R161A, NR concentration 90 nM)", "PBM binding z-score": 3.19}
{"sequence_chain": "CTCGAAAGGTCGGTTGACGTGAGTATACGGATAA", "assayed_target": "RXRa DBDmut IVT, anti-RXR (DBD mutation: RXRa K156A/R161A, NR concentration 90 nM)", "PBM binding z-score": 1.06}
{"sequence_chain": "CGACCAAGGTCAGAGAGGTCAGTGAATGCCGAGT", "assayed_target": "RXRa DBDmut IVT, anti-RXR (DBD mutation: RXRa K156A/R161A, NR concentration 90 nM)", "PBM binding z-score": 3.34}
{"sequence_chain": "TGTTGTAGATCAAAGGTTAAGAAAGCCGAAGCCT", "assayed_target": "RXRa DBDmut IVT, anti-RXR (DBD mutation: RXRa K156A/R161A, NR concentration 90 nM)", "PBM binding z-score": -0.391}
{"sequence_chain": "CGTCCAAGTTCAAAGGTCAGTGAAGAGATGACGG", "assayed_target": "RXRa DBDmut IVT, anti-RXR (DBD mutation: RXRa K156A/R161A, NR concentration 90 nM)", "PBM binding z-score": 4.85}
{"sequence_chain": "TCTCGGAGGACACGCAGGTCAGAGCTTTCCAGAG", "assayed_target": "RXRa DBDmut IVT, anti-RXR (DBD mutation: RXRa K156A/R161A, NR concentration 90 nM)", "PBM binding z-score": 0.783}
{"sequence_chain": "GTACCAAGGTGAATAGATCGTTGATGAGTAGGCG", "assayed_target": "RXRa DBDmut IVT, anti-RXR (DBD mutation: RXRa K156A/R161A, NR concentration 90 nM)", "PBM binding z-score": -0.335}
{"sequence_chain": "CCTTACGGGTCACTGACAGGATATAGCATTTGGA", "assayed_target": "RXRa DBDmut IVT, anti-RXR (DBD mutation: RXRa K156A/R161A, NR concentration 90 nM)", "PBM binding z-score": 1.76}
{"sequence_chain": "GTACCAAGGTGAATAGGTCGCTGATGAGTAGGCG", "assayed_target": "RXRa DBDmut IVT, anti-RXR (DBD mutation: RXRa K156A/R161A, NR concentration 90 nM)", "PBM binding z-score": -0.316}
{"sequence_chain": "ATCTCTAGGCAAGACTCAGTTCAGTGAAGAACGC", "assayed_target": "RXRa DBDmut IVT, anti-RXR (DBD mutation: RXRa K156A/R161A, NR concentration 90 nM)", "PBM binding z-score": 0.109}
{"sequence_chain": "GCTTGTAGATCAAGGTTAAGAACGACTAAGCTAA", "assayed_target": "RXRa DBDmut IVT, anti-RXR (DBD mutation: RXRa K156A/R161A, NR concentration 90 nM)", "PBM binding z-score": 0.11}
{"sequence_chain": "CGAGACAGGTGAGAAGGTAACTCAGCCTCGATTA", "assayed_target": "RXRa DBDmut IVT, anti-RXR (DBD mutation: RXRa K156A/R161A, NR concentration 90 nM)", "PBM binding z-score": -0.6}
{"sequence_chain": "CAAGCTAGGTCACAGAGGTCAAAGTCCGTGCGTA", "assayed_target": "RXRa DBDmut IVT, anti-RXR (DBD mutation: RXRa K156A/R161A, NR concentration 90 nM)", "PBM binding z-score": 3.42}
{"sequence_chain": "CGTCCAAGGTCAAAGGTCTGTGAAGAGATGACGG", "assayed_target": "RXRa DBDmut IVT, anti-RXR (DBD mutation: RXRa K156A/R161A, NR concentration 90 nM)", "PBM binding z-score": 4.3}
{"sequence_chain": "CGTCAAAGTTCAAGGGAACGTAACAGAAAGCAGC", "assayed_target": "RXRa DBDmut IVT, anti-RXR (DBD mutation: RXRa K156A/R161A, NR concentration 90 nM)", "PBM binding z-score": 4.46}
{"sequence_chain": "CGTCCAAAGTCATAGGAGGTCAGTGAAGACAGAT", "assayed_target": "RXRa DBDmut IVT, anti-RXR (DBD mutation: RXRa K156A/R161A, NR concentration 90 nM)", "PBM binding z-score": 0.438}
{"sequence_chain": "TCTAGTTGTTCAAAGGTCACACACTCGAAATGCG", "assayed_target": "RXRa DBDmut IVT, anti-RXR (DBD mutation: RXRa K156A/R161A, NR concentration 90 nM)", "PBM binding z-score": 2.05}
{"sequence_chain": "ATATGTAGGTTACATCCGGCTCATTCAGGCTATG", "assayed_target": "RXRa DBDmut IVT, anti-RXR (DBD mutation: RXRa K156A/R161A, NR concentration 90 nM)", "PBM binding z-score": 0.846}
{"sequence_chain": "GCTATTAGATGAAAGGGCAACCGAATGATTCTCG", "assayed_target": "RXRa DBDmut IVT, anti-RXR (DBD mutation: RXRa K156A/R161A, NR concentration 90 nM)", "PBM binding z-score": 0.654}
{"sequence_chain": "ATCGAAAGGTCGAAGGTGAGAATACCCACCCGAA", "assayed_target": "RXRa DBDmut IVT, anti-RXR (DBD mutation: RXRa K156A/R161A, NR concentration 90 nM)", "PBM binding z-score": 1.42}
{"sequence_chain": "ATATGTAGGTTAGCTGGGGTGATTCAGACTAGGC", "assayed_target": "RXRa DBDmut IVT, anti-RXR (DBD mutation: RXRa K156A/R161A, NR concentration 90 nM)", "PBM binding z-score": 0.484}
{"sequence_chain": "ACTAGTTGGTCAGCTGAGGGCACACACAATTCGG", "assayed_target": "RXRa DBDmut IVT, anti-RXR (DBD mutation: RXRa K156A/R161A, NR concentration 90 nM)", "PBM binding z-score": 0.326}
{"sequence_chain": "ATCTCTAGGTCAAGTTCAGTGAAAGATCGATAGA", "assayed_target": "RXRa DBDmut IVT, anti-RXR (DBD mutation: RXRa K156A/R161A, NR concentration 90 nM)", "PBM binding z-score": 2.98}
{"sequence_chain": "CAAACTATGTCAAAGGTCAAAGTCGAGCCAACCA", "assayed_target": "RXRa DBDmut IVT, anti-RXR (DBD mutation: RXRa K156A/R161A, NR concentration 90 nM)", "PBM binding z-score": 1.75}
{"sequence_chain": "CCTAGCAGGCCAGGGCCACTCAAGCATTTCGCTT", "assayed_target": "RXRa DBDmut IVT, anti-RXR (DBD mutation: RXRa K156A/R161A, NR concentration 90 nM)", "PBM binding z-score": -0.762}
{"sequence_chain": "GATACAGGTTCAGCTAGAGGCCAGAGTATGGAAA", "assayed_target": "RXRa DBDmut IVT, anti-RXR (DBD mutation: RXRa K156A/R161A, NR concentration 90 nM)", "PBM binding z-score": 3.05}
{"sequence_chain": "TAGCCTAGGTCAGATTGGGCCAGTATACGCTATA", "assayed_target": "RXRa DBDmut IVT, anti-RXR (DBD mutation: RXRa K156A/R161A, NR concentration 90 nM)", "PBM binding z-score": -0.225}
{"sequence_chain": "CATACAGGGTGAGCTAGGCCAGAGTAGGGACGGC", "assayed_target": "RXRa DBDmut IVT, anti-RXR (DBD mutation: RXRa K156A/R161A, NR concentration 90 nM)", "PBM binding z-score": -1.01}
{"sequence_chain": "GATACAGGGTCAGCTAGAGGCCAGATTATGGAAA", "assayed_target": "RXRa DBDmut IVT, anti-RXR (DBD mutation: RXRa K156A/R161A, NR concentration 90 nM)", "PBM binding z-score": 1.25}
